biological target: BACE-2 (Homo sapiens, UniProt Q9Y5Z0); construct: Recombinant BACE-2 (extracellular domain, expressed in baculovirus and purified using standard methods); test: assay for inhibition of BACE-2
Sequence (Q9Y5Z0 63-473 limits assumed): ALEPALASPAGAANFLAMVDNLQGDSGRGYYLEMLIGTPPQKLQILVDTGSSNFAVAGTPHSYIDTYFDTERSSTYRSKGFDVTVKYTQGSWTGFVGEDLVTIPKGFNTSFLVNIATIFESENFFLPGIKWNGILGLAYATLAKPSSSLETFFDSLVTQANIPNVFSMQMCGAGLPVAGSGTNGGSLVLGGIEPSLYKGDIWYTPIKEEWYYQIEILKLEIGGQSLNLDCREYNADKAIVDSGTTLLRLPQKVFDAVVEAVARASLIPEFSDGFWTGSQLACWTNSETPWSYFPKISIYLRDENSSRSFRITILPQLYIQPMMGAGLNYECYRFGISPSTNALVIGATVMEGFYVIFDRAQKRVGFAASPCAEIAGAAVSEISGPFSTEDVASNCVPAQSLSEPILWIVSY
pIC50: −log10 of the molar value. Where a name gives a salt, the structure may show the parent alone.
Property Name: pIC50

Worked examples follow.
Molecule	Reported Measurement
NC1=NC(c2cc(NC(=O)c3ccc(Br)cn3)c(F)cc2F)(C(F)F)COC1 (centres unmarked)	5.37
Cc1cc(Br)cnc1C(=O)Nc1ccc(F)c(C2(C(F)F)CNCC(N)=N2)c1 (centres unmarked)	7.64
NC1=NC(CF)(c2cc(NC(=O)c3ccc(Br)cn3)ccc2F)COC1 (centres unmarked)	7.49
Cc1cc(Br)cnc1C(=O)Nc1ccc(F)c([C@]2(CF)COCC(N)=N2)c1	8.22
[2H]c1nc(C(=O)Nc2cccc(C3(CF)COCC(N)=N3)n2)c(C([2H])([2H])[2H])c([2H])c1Cl (centres unmarked)	6.62

1: NC1=N[C@@](c2cc(NC(=O)c3ccc(C(F)(F)F)cn3)ccc2F)(C(F)F)COC1
2: Cc1cc(Cl)cnc1C(=O)Nc1ccc(F)c([C@]2(C)CO[C@@](C)(C(F)(F)F)C(N)=N2)c1 [Example 234, hydrochloride]
Inquiry: Returns: the argument ( 1 or 2 ) having the larger pIC50. Bench note: the answer is the label of the chosen record.
Reply text: 2

====

molecular target: BACE-2 (Homo sapiens, UniProt Q9Y5Z0); construct: Recombinant BACE-2 (extracellular domain, expressed in baculovirus and purified using standard methods); test: assay for inhibition of BACE-2
pIC50: −log10 of the molar value. Where a name gives a salt, the structure may show the parent alone.
Property Name: pIC50

Compound	Reported Measurement
NC1=N[C@@](c2cc(NC(=O)c3ncc(OCF)cc3Cl)ccc2F)(C(F)F)COC1 [Example 184, hydrochloride]	7.33
Cc1cc(OCF)cnc1C(=O)Nc1ccc(F)c([C@]2(C(F)F)COCC(N)=N2)c1 [Example 177, hydrochloride]	7.43
CC1(c2cccc(NC(=O)c3ncc(C(F)(F)F)cc3Cl)c2)COCC(N)=N1 (stereo not shown) [Example 17, hydrochloride]	6.16
NC1=N[C@@](c2cc(NC(=O)c3ccc(O)nn3)ccc2F)(C(F)F)COC1	6.07
NC1=NC(c2cccc(NC(=O)c3ccc(Br)cn3)c2)(C(F)F)COC1 (stereo not shown) [Example 34, hydrochloride]	6.46
NC1=NC(CF)(c2cccc(NC(=O)c3ccc(Br)cn3)c2)COC1 (stereo not shown)	6.89

1: CC1(c2cc(NC(=O)c3ncc(C(F)(F)F)cc3Cl)ccc2F)N=C(N)COCC1(F)F (stereo not shown)
2: CC1(c2cccc(NC(=O)c3ccc(Br)cc3)c2)COCC(N)=N1 (stereo not shown) [Example 24, hydrochloride]
Inquiry: Input pair: 1 , 2 . Output: entry with lower pIC50. Bench note: the answer is the label of the chosen record.
Reply text: 2

====

molecular target: BACE-2 (Homo sapiens, UniProt Q9Y5Z0); construct: Recombinant BACE-2 (extracellular domain, expressed in baculovirus and purified using standard methods); experiment: assay for inhibition of BACE-2
Structures can show the parent of a compound that is named as a salt.
Property Name: IC50 (µM)

Molecule	Result Unit	Reported Measurement
COc1cnc(C(=O)Nc2ccc(F)c([C@]3(C(F)F)COCC(N)=N3)c2)c(C)n1 [Example 174, hydrochloride]	µM	0.276

1: C[C@@]1(c2cc(NC(=O)c3ncc(Br)cn3)ccc2F)CO[C@@](C)(C(F)(F)F)C(N)=N1 [Example 71, hydrochloride]
2: Cc1cc(Cl)cnc1C(=O)Nc1ccc(F)c([C@]2(CF)COCC(N)=N2)c1
Inquiry: Input pair: 1 , 2 . Output: entry with lower IC50. Bench note: the answer is the label of the chosen record.
Reply text: 2
(2: 0.0004 µM, 1: 0.003 µM)

I: Cc1cc(Br)cnc1C(=O)Nc1ccc(F)c(C2(CF)COCC(N)=N2)c1 (stereo not drawn)
II: Cc1cc(Br)cnc1C(=O)Nc1ccc(F)c(C2(C(F)F)CN(C(=O)OCC(Cl)Cl)CC(N)=N2)c1 (stereo not drawn)
Inquiry: Returns: the argument ( I or II ) having the larger IC50. Bench note: the answer is the label of the chosen record.
Reply text: I

A: NC1=NC(c2cc(NC(=O)c3ccc(Br)cn3)ccc2F)(C(F)F)COC1 (stereo not drawn) [Example 42, hydrochloride]
B: COCCOc1ccc(C(=O)Nc2ccc(F)c([C@]3(C(F)F)COCC(N)=N3)c2)nc1 [Example 180, hydrochloride]
Inquiry: Input pair: A , B . Output: entry with lower IC50. Bench note: the answer is the label of the chosen record.
Reply text: A
